Measured values drawn from patent US20260242478A1 for this set.

# ASSAY SYSTEM: T1, Anti-CD28 Fab (SEQ ID NOs: 696, 697)
# T1 construct: In the phage ELISA the Fab was biotinylated and captured on neutravidin coated plates
# T1 sequence (VH, as listed by the source, chain 1 of 2): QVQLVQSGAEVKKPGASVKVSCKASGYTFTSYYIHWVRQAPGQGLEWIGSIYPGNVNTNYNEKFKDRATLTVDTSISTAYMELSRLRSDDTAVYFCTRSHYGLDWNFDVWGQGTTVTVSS
# T1 sequence (VL, as listed by the source, chain 2 of 2): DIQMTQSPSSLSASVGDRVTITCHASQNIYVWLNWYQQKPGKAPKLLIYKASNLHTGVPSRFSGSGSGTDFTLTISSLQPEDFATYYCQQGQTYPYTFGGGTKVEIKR
# ASSAY NOTES: phage ELISA; Fab-coated wells pre-incubated with CD28 antigen as competitor, anti-M13 HRP detection;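 note: crude clonal phage supernatants screened by ELISA, comparing wells pre-treated with CD28 antigen in blocker against wells given blocker only, bound phage read via HRP-linked anti-M13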
Anti-CD28 Fab signal in the presence of CD28 (phage binding ELISA) less than 0.07 is yes (1); Anti-CD28 Fab signal in the presence of CD28 (phage binding ELISA) greater than or equal to 0.07 is no (0).

Find out if reported Anti-CD28 Fab signal in the presence of CD28 (phage binding ELISA) for YCAGHSPEFMEKCL (tested as crude clonal phage supernatant) [Phage-747] is less than 0.07 yes (1)

Find out if reported Anti-CD28 Fab signal in the presence of CD28 (phage binding ELISA) for YCDGHASEYMWKCL (tested as crude clonal phage supernatant) [Phage-736] is less than 0.07 yes (1)

Find out if reported Anti-CD28 Fab signal in the presence of CD28 (phage binding ELISA) for YCEGHRAEYMEKCL (tested as crude clonal phage supernatant) [Phage-738] is less than 0.07 yes (1)

Find out if reported Anti-CD28 Fab signal in the presence of CD28 (phage binding ELISA) for YCAGHMPEYIDKCL (tested as crude clonal phage supernatant) [Phage-746] is less than 0.07 yes (1)

Find out if reported Anti-CD28 Fab signal in the presence of CD28 (phage binding ELISA) for YCDGHSAEYLAKCL (tested as crude clonal phage supernatant) [Phage-743] is less than 0.07 no (0)

Find out if reported Anti-CD28 Fab signal in the presence of CD28 (phage binding ELISA) for YCDGHLNEYMEKCL (tested as crude clonal phage supernatant) [Phage-748] is less than 0.07 yes (1)

Find out if reported Anti-CD28 Fab signal in the presence of CD28 (phage binding ELISA) for YCMGHQPEYMQKCL (tested as crude clonal phage supernatant) [Phage-741] is less than 0.07 no (0)

Find out if reported Anti-CD28 Fab signal in the presence of CD28 (phage binding ELISA) for YCDGHMPEYMEKCL (tested as crude clonal phage supernatant) [Phage-742] is less than 0.07 no (0)

Find out if reported Anti-CD28 Fab signal in the presence of CD28 (phage binding ELISA) for YCDGHSPDYIWKCL (tested as crude clonal phage supernatant) [Phage-739] is less than 0.07 no (0)

Find out if reported Anti-CD28 Fab signal in the presence of CD28 (phage binding ELISA) for YCSGHAPEYMAKCL (tested as crude clonal phage supernatant) [Phage-737] is less than 0.07 yes (1)
